These measurements were taken from ChEMBL document CHEMBL3988442.

Below is a list of entries, each paired with its recorded Percent Effect value.
Test system: Wolbachia pipientis
Experiment: Anti-Wolbachia Cell-Based Screen
Format: functional
Set-up: scale not given: in the data most compounds retested in dose-response had high values
Conditions: 5 µM
Out of some 48,000 compounds screened, about 13,000 (27%) showed an effect of 50% or more. Some of the results follow.
assay-readout: Percent Effect

1. CNc1cc(N2CCCC2CNCc2ccc(Cl)o2)ncn1 (configuration not stated) : 6.692%
2. COc1ccc(C[C@H]2CN(c3nnc(C)s3)CC[C@@H]2OC)cc1.O=C(O)C(F)(F)F : 83.05%
3. Cc1noc(C)c1CN1CCOCC12CCN(c1ncccn1)CC2.O=C(O)C(F)(F)F : 113.5%
4. CNC(=O)[C@H]1C[C@@H]2CN(C(=O)c3ccncc3)C[C@@H]2N1S(C)(=O)=O.O=C(O)C(F)(F)F : 89.45%
5. OCC(O)CSCc1cn(-c2ccc(Cl)c(Cl)c2)nn1 (configuration not stated) : -1.515%
6. Cc1noc(C)c1CN1CCOCC12CCN(c1cnccn1)CC2.O=C(O)C(F)(F)F : 82.98%
7. Cn1c(=O)oc2cc(Nc3ncc(C#N)cc3Cl)ccc21 : -1.67%
8. CN(CCn1ccc2ccccc21)C(=O)CS(C)(=O)=O : -3.366%
9. CN(C)CCN1CCC(NC2CSCCc3ccccc32)CC1 (configuration not stated) : -11.44%
10. CN1CC[C@@H]2[C@@H]1CCN2Cc1ccc2c(c1)OCO2 : -14.63%
11. COc1ccc(C[C@H]2CN(c3nnc(C)s3)CC[C@H]2OC)cc1.O=C(O)C(F)(F)F : 100.4%
12. CSc1nnc(CC2CCN(C(=O)Cc3ccncc3)CC2)n1C : -0.6807%
13. Cc1ccc(N2CCC(NCc3cnc(C4CCC4)s3)CC2)nc1 : 10.22%
14. O=C(NCCCNc1ccc(C(F)(F)F)cn1)c1ccc(F)cc1Br : 166.7%
15. CC(SCCC(=O)NC(N)=O)c1cccc(F)c1 (configuration not stated) : -9.647%
16. CNC(=O)[C@H]1C[C@@H]2CN(S(=O)(=O)c3ccc(F)cc3)C[C@@H]2N1C.O=C(O)C(F)(F)F : -8.738%
17. CCc1cc(NC(=O)N2CCC(Oc3cccnc3)C2)n(C)n1 (configuration not stated) : -19.7%
18. COCc1nn(CC2CC2)c2c1CN(Cc1ccco1)CC2.O=C(O)C(F)(F)F : -26.88%
19. CNC(=O)[C@H]1C[C@@H]2CN(S(=O)(=O)c3ccccc3)C[C@@H]2N1C.O=C(O)C(F)(F)F : -12.02%
20. CCn1cc(CNC(C)c2noc(-c3ccc(Cl)cc3)n2)cn1 (configuration not stated) : 5.108%
21. CSCC(C)(O)CNC(=O)c1ccc(F)cc1Br (configuration not stated) : -10.01%
22. N#Cc1ccc(C(=O)NCCCNc2ccc(C(F)(F)F)cn2)cc1 : -7.343%

* * *

Tested on: Wolbachia pipientis
Assay: Anti-Wolbachia Cell-Based Screen
Assay type: functional
Design: scale not given: in the data most compounds retested in dose-response had high values
Conditions: 5 µM
The campaign covered roughly 48,000 compounds. About 13,000 (27%) showed an effect of 50% or more. The list shows a part of the results.
assay-readout: Percent Effect (%)

1. CCCS(=O)(=O)CC(=O)NC(C)c1cccc(-n2cccn2)c1 (configuration not stated) : -8.263
2. CCC(c1nc(C(C)C)nn1-c1ccccn1)n1cccn1 (configuration not stated) : 8.011
3. COCC(=O)Nc1ccnc(OCCN(C)C)c1 : 5.238
4. COCc1nc(N(C)C)ncc1C(=O)NC(C)C : 11.32
5. COCCC(=O)NCCc1nc(N(C)C)ncc1-c1ccncc1 : 140.1
6. CN(Cc1cccc(Cl)c1)Cc1nnsc1Cl : -20.09
7. COCc1nc(N(C)C)ncc1C(=O)Nc1ccn(C)n1 : 4.031

* * *

System: Wolbachia pipientis
Assay: Anti-Wolbachia Cell-Based Screen
Assay type: functional
Parameters: scale not given: in the data most compounds retested in dose-response had high values
Conditions: 5 µM
Among all 48,000 compounds or so, about 13,000 (27%) showed an effect of 50% or more. The list shows a part of the results.
Measured Percent Effect by item
assay-readout: Percent Effect (%)

1. Cn1cc(C[C@H]2[C@@H](O)CCN2C(=O)C2CCC2)cn1 : -13.15
2. CC(C)Cc1nc(CN2CCC(N3CCN(C)C3=O)CC2)no1 : -0.1019
3. O=C(c1cc(C2CC2)no1)N1C[C@H]2CC[C@@H]1CN(Cc1ccccn1)C2 : -3.322
4. O=C(C1CCOCC1)N1CC[C@@H]2[C@H]1CCC(=O)N2c1ccccc1 : -23.21
5. CC(C)(C)c1ncc2c(n1)CN(C(=O)c1ccc(-c3nc[nH]n3)cc1)C2 : -2.467
6. Cc1nc([C@@H]2C[C@@H]3CCN(C(=O)c4ccnnc4)C[C@H]3O2)sc1C : 3.729
7. O=C(C1CC=CC1)N1CC[C@@H](O)[C@H]1Cc1cccnc1 : 109.3
8. c1ccc(-c2noc(CN3CCC(c4ccn[nH]4)CC3)n2)cc1 : 3.848
9. NC(=O)N1CCCC(C(=O)N2CCc3c(nc(CC4CC4)[nH]c3=O)C2)C1 (stereo not drawn) : 10.65
10. Cn1cc(C[C@H]2[C@H](O)CCN2C(=O)C2CCOCC2)cn1 : -4.576
11. O=C(c1ccccc1)N1CC[C@H]2C[C@H](c3nnc(C4CC4)o3)O[C@@H]2C1 : 87.37
12. CCCNCc1cc2c(C)cc(C)cc2n2c(=O)n(C)nc12 : -10.06
13. COCC1c2nnn(CC3CC3)c2CCN1C(=O)C1CCOCC1 (stereo not drawn) : -9.696
14. CNS(=O)(=O)CC1CCCN1c1ccccn1 (stereo not drawn) : -17.04
15. COCC(=O)N1CC[C@H]2C[C@H](c3nnc(C4CC4)o3)O[C@@H]2C1 : 59.46
16. CC1CCCCN1c1nc2c(c(=O)[nH]1)CCN(Cc1ccccc1O)C2 (stereo not drawn) : 110.1
17. Cc1ccc(-c2noc(CN3CCC(c4ccn[nH]4)CC3)n2)cc1 : -38.16
18. O=C(c1cnccn1)N1CCCC(Cn2cc(C3CC3)nn2)C1 (stereo not drawn) : -22.35
19. Cc1nc(CCCNC(=O)C2CC(=O)N(C3CC3)C2)sc1C (stereo not drawn) : 0.5008
20. Fc1ccc(-c2noc(CN3CCC(c4cc[nH]n4)CC3)n2)cc1 : -73.45
21. Cc1nc([C@H]2C[C@@H]3CCN(C(=O)c4ccnnc4)C[C@H]3O2)sc1C : -5.019
22. Cc1ccc(-c2noc(CN3CCC(N4CCNC4=O)CC3)n2)cc1 : 76.33
23. CC(C)NC(=O)CCNC(=O)c1cc(F)ccc1NS(C)(=O)=O : -9.152
24. O=C(c1ccc(Cn2cc(Br)cn2)cc1)N1CCCC1 : 26.22
25. COCC(=O)N1CC[C@H]2C[C@H](c3nc(C)no3)O[C@@H]2C1 : 4.349
26. CN1CCN(C2CCN(Cc3nc(-c4ccoc4)no3)CC2)C1=O : 101.9
27. O=C(C1CCOCC1)N1CC[C@@H](O)[C@@H]1Cc1ccccc1 : 90.42
28. Cc1csc([C@@H]2C[C@@H]3CCN(C(=O)c4cccn4C)C[C@H]3O2)n1 : -10.26
29. O=C1NCCN1C1CCN(Cc2nc(-c3ccoc3)no2)CC1 : 0.168
30. Cc1cccc(-c2noc(CN3CCC(N4CCNC4=O)CC3)n2)c1 : 0.5199
31. COCC(=O)Nc1ccc(-c2noc([C@@H]3CCCN3C)n2)cn1 : -1.727
32. COCCNCc1cc2c(C)cc(C)cc2n2c(=O)n(C)nc12 : 88.13
33. CCOCCCNCc1cc2c(C)cc(C)cc2n2c(=O)n(C)nc12 : 119.1
34. CNc1ccc(CC2CCCN(C(=O)c3cnc(C)nc3)C2)nn1 (stereo not drawn) : 2.499
35. CN(C)[C@@H]1CCN(C(=O)C2CCOCC2)[C@H]1Cc1ccncc1.O=C(O)C(F)(F)F.O=C(O)C(F)(F)F : -5.936
36. COCC(=O)Nc1ccc(-c2noc([C@@H]3CCCN3CC(C)C)n2)cn1 : 49.09
37. CC(=O)NCCc1ccc(S(=O)(=O)N(C)C(C)CC(C)C)s1 (stereo not drawn) : 2.114
38. Cc1noc([C@H]2C[C@@H]3CCN(C(=O)c4cccn4C)C[C@H]3O2)n1 : 59.05
39. CN(Cc1ncnn1C)C(=O)CCn1ccc2ccccc21 : -15.17
40. O=C(C1CC1)N1C[C@@H](F)[C@@H](OCc2nc3ccccc3[nH]2)C1 : -5.445
41. COc1ccc(NC(=O)Nc2c(O)c3ccccc3oc2=O)cc1 : 106
42. COCC(=O)N1CC[C@H]2C[C@@H](c3nnc(C4CC4)o3)O[C@@H]2C1 : -4.608
43. CNc1ccc(CC2CCCN(C(=O)c3cnccn3)C2)nn1 (stereo not drawn) : 132.6
